Listed here are binders together with their documented optical density.
system: T1, Goat anti-Human Kappa
T1 construct: Positive control of the ELISA; also called biotinylated goat anti-human kappa light chain
assay_name: ELISA, positive control; note: test concentration or dose not given here
Give your result in OD as a bare value.

Some entries whose results are on file:
{"binder": "370_A04 (antibody, V domains shown) VH: EVQLLESGGGLVQPGGSLRLSCAASGFTFDSYSMNWVRQAPGKGLEWVSGINYNGGYTSYADSVKGRFTISRDNSKNTLYLQMNSLRAEDTAVYYCARSANWHDTALDYWGQGTLVTVSS VL: DIQMTQSPSSLSASVGDRVTITCRASQSIITYLNWYQQKPGKAPKLLIYAATSRASGVPSRFSGSGSGTDFTLTISSLQPEDFATYYCQQSYDNPLTFGGGTKVEIK", "optical density / OD": 3.48}
{"binder": "367_C01 (antibody, V domains shown) VH: EVQLLESGGGLVQPGGSLRLSCAASGFTFDDYSMNWVRQAPGKGLEWVSGINYNGGYKSYADSVKGRFTISRDNSKNTLYLQMNSLRAEDTAVYYCARSANWHDTHLDYWGQGTLVTVSS VL: DIQMTQSPSSLSASVGDRVTITCRASQSILTYLNWYQQKPGKAPKLVIYATTSLHSGVPSRFSGSGSGTDFTLTISSLQPEDFATYYCQQSYDTPLTFGGGTKVEIK", "optical density / OD": 3.71}
{"binder": "370_E03 (antibody, V domains shown) VH: EVQLLESGGGLVQPGGSLRLSCAASGFTFSSYGMNWVRQAPGKGLEWVSSINYNGGYKGYADSVKGRFTISRDNSKNTLYLQMNSLRAEDTAVYYCARSANWHDTALDYWGQGTLVTVSS VL: DIQMTQSPSSLSASVGDRVTITCRASQSILTYLNWYQQKPGKAPKLVIYYASNRASGVPSRFSGSGSGTDFTLTISSLQPEDFATYYCQQSYDSPLTFGGGTKVEIK", "optical density / OD": 3.57}

Below: the item to evaluate.
Form field optical density, entry 367_G05 (antibody, V domains shown) VH: EVQLLESGGGLVQPGGSLRLSCAASGFTFSDYGMNWVRQAPGKGLEWVANINYNGGYTSYADSVKGRFTISRDNSKNTLYLQMNSLRAEDTAVYYCARSANWHDTALDYWGQGTLVTVSS VL: DIQMTQSPSSLSASVGDRVTITCRASQSIVSYLNWYQQKPGKAPKLVIYAATSLASGVPSRFSGSGSGTDFTLTISSLQPEDFATYYCQQSYDTPLTFGGGTKVEIK : 3.37

Hey, just so you know, these numbers are from patent US20210380703A1.
